Reported values of cAMP Emax for individual entries
tested system: hGLP-1R (Homo sapiens, UniProt P43220)
measurement notes: cell-based or functional assay
measurement type: cAMP Emax (%)

1. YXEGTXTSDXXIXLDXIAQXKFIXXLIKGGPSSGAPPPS (Y-Aib-EGT-αMeF(2F)-TSD-4Pal-Aib-I-αMeL-LD-Orn-IAQ-Aib-K(2-[2-(2-Amino-ethoxy)-ethoxy]-acetyl)2-(γ-Glu)-(11-(4-carboxyphenoxy)undecanoyl)FI-(D-Glu)-αMeY-LIK((2-[2-(2-Amino-ethoxy)-ethoxy]-acetyl)2-(γ-Glu)-(11-(4-carboxyphenoxy)undecanoyl)GGPSSGAPPPS-NH2)) [Example 331] | 99.6
2. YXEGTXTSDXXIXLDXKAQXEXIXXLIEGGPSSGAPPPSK (Y-Aib-EGT-αMeF(2F)-TSD-4Pal-Aib-I-αMeL-LD-Orn-K((2-[2-(2-Amino-ethoxy)-ethoxy]-acetyl)3-(Y-Glu)-CO-(CH2)10-CH3)AQ-Aib-E-αMeF-I-(D-Glu)-αMeY-LIEGGPSSGAPPPSK((2-[2-(2-Amino-ethoxy)-ethoxy]-acetyl)3-(γ-Glu)-CO-(CH2)10-CH3)-NH2) [Example 439] | 95.7
3. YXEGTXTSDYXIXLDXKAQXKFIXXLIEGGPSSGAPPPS (Y-Aib-EGT-αMeF(2F)-TSDY-Aib-I-αMeL-LD-Orn-K((2-[2-(2-Amino-ethoxy)-ethoxy]-acetyl)2-(γ-Glu)-CO-(CH2)10-CH3)AQ-Aib-K((2-[2-(2-Amino-ethoxy)-ethoxy]-acetyl)2-(γ-Glu)-CO-(CH2)10-CH3)FI-(D-Glu)-αMeY-LIEGGPSSGAPPPS-NH2) [Example 300] | 107
4. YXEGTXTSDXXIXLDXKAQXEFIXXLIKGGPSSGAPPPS (Y-Aib-EGT-αMeF(2F)-TSD-4Pal-Aib-I-αMeL-LD-Orn-K((2-[2-(2-Amino-ethoxy)-ethoxy]-acetyl)-Aoc-CO-(CH2)12-CO2H)AQ-Aib-EFI-(D-Glu)-αMeY-LIK(((2-[2-(2-Amino-ethoxy)-ethoxy]-acetyl)-Aoc-CO-(CH2)12-CO2H)GGPSSGAPPPS-NH2)) [Example 465] | 98.6
5. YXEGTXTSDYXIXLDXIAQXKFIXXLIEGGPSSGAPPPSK (Y-Aib-EGT-αMeF(2F)-TSDY-Aib-I-αMeL-LD-Orn-IAQ-Aib-K((2-[2-(2-Amino-ethoxy)-ethoxy]-acetyl)-(γ-Glu)-(10-(4-carboxyphenoxy)decanoyl))FI-(D-Glu)-αMeY-LIEGGPSSGAPPPSK((2-[2-(2-Amino-ethoxy)-ethoxy]-acetyl)-(γ-Glu)-(10-(4-carboxyphenoxy)decanoyl))-NH2) [Example 377] | 100
6. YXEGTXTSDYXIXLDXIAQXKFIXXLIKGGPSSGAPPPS (Y-Aib-EGT-αMeF(2F)-TSDY-Aib-I-αMeL-LD-Orn-IAQ-Aib-K((2-[2-(2-Amino-ethoxy)-ethoxy]-acetyl)-(γ-Glu)-(10-(4-carboxyphenoxy)decanoyl))FI-(D-Glu)-αMeY-LIK((2-[2-(2-Amino-ethoxy)-ethoxy]-acetyl)-(γ-Glu)-(10-(4-carboxyphenoxy)decanoyl))GGPSSGAPPPS-NH2) [Example 376] | 104
